- target of assay: T1, Aβ (1-42) peptide (human)
- T1 construct: also called Aβ1-42 fibers; Aβ4
- test summary: SPR Scatchard, higher affinity (bivalent)
pKd: −log10 of the molar value.
test readout: pKd

# query: pKd of entry MS-R IgG1 7.11.H1 × 7.11.L1 (antibody, V domains shown, full-length human IgG1; VH entry starts at QLVESGG) VH: ELVESGGGLVQPGGSLRLSCAASGFTFSSYAMSWVRQAPGKGLEWVSGINAAGFRTYYADSVKGRFTISRDNSKNTLYLQMNSLRAEDTAVYYCARGKGNTHKPYGYVRYFDVWGQGTLVTVSS VL: DIVLTQSPATLSLSPGERATLSCRASQRILRIYLAWYQQKPGQAPRLLIYGASSRATGVPARFSGSGSGTDFTLTISSLEPEDFATYYCQQVYSPPHTFGQGTKVEIKR
9.15 to 9.89

Next binder: MS-R #7.9.H7 IgG1 (antibody, V domains shown, full-length human IgG1; also called MAB 31; MS-Roche IgG #7.9.H7) VH: QVELVESGGGLVQPGGSLRLSCAASGFTFSSYAMSWVRQAPGKGLEWVSAINASGTRTYYADSVKGRFTISRDNSKNTLYLQMNSLRAEDTAVYYCARGKGNTHKPYGYVRYFDVWGQGTLVTVSS VL: DIVLTQSPATLSLSPGERATLSCRASQSVSSSYLAWYQQKPGQAPRLLIYGASSRATGVPARFSGSGSGTDFTLTISSLEPEDFATYYCLQIYNMPITFGQGTKVEIKR
9.15 to 9.62

Record: MS-R IgG1 7.9.H3 (antibody, V domains shown, full-length human IgG1; also called 7.9H3 IgG) VH: QVELVESGGGLVQPGGSLRLSCAASGFTFSSYAMSWVRQAPGKGLEWVSAINYQGNRKYYADSVKGRFTISRDNSKNTLYLQMNSLRAEDTAVYYCARGKGNTHKPYGYVRYFDVWGQGTLVTVSS VL: DIVLTQSPATLSLSPGERATLSCRASQSVSSSYLAWYQQKPGQAPRLLIYGASSRATGVPARFSGSGSGTDFTLTISSLEPEDFATYYCLQIYNMPITFGQGTKVEIK
9.40 to 10.00

Same question for MSR 7.9.H2 IgG1 (antibody, V domains shown, full-length human IgG1) VH: QVELVESGGGLVQPGGSLRLSCAASGFTFSSYAMSWVRQAPGKGLEWVSAINADGNRKYYADSVKGRFTISRDNSKNTLYLQMNSLRAEDTAVYYCARGKGNTHKPYGYVRYFDVWGQGTLVTVSS VL: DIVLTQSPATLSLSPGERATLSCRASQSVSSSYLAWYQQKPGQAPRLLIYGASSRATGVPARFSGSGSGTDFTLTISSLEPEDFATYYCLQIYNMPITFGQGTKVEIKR please.
9.42 to 9.96

Try the binder MS-R IgG1 7.2.H4 (antibody, V domains shown, full-length human IgG1) VH: QVELVESGGGLVQPGGSLRLSCAASGFTFSSYAMSWVRQAPGKGLEWVSAINSKGSRIYYADSVKGRFTISRDNSKNTLYLQMNSLRAEDTAVYYCARGKGNTHKPYGYVRYFDVWGQGTLVTVSS VL: DIVLTQSPATLSLSPGERATLSCRASQSVSSSYLAWYQQKPGQAPRLLIYGASSRATGVPARFSGSGSGTDFTLTISSLEPEDFATYYCQQIYSFPHTFGQGTKVEIK
9.18 to 10.00

Also MS-R IgG1 3.6.H5 × 3.6.L2 (antibody, V domains shown, full-length human IgG1; VH entry starts at QLVESGG) VH: ELVESGGGLVQPGGSLRLSCAASGFTFSSYAMSWVRQAPGKGLEWVSAISESGKTKYYADSVKGRFTISRDNSKNTLYLQMNSLRAEDTAVYYCARLTHYARYYRYFDVWGQGTLVTVSS VL: DIVLTQSPATLSLSPGERATLSCRASQFLSRYYLAWYQQKPGQAPRLLIYGASSRATGVPARFSGSGSGTDFTLTISSLEPEDFAVYYCQQTYNYPPTFGQGTKVEIKR ?
9.02 to 9.70

Repeat with MS-R IgG1 3.6.H8 × 3.6.L2 (antibody, V domains shown, full-length human IgG1; VH entry starts at QLVESGG) VH: ELVESGGGLVQPGGSLRLSCAASGFTFSSYAMSWVRQAPGKGLEWVSAISEYSKFKYYADSVKGRFTISRDNSKNTLYLQMNSLRAEDTAVYYCARLTHYARYYRYFDVWGQGTLVTVSS VL: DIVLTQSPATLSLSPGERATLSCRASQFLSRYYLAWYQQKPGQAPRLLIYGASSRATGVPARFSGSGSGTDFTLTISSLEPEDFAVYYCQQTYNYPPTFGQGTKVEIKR
9.09 to 9.66

Then what about the binder MS-R #7.11.H1×7.2.L1 IgG1 (antibody, V domains shown, full-length human IgG1; VH entry starts at QLVESGG; also called MAB 11) VH: ELVESGGGLVQPGGSLRLSCAASGFTFSSYAMSWVRQAPGKGLEWVSGINAAGFRTYYADSVKGRFTISRDNSKNTLYLQMNSLRAEDTAVYYCARGKGNTHKPYGYVRYFDVWGQGTLVTVSS VL: DIVLTQSPATLSLSPGERATLSCRASQYVDRTYLAWYQQKPGQAPRLLIYGASSRATGVPARFSGSGSGTDFTLTISSLEPEDFATYYCQQIYSFPHTFGQGTKVEIKR ?
9.17 to 9.82

Lookup MS-R IgG1 7.12.L1 (antibody, V domains shown, full-length human IgG1) VH: QVQLVESGGGLVQPGGSLRLSCAASGFTFSSYGMSWVRQAPGKGLEWVSNISGSGSSTYYADSVKGRFTISRDNSKNTLYLQMNSLRAEDTAVYYCARGKGNTHKPYGYVRYFDVWGQGTLVTVSS VL: DIVLTQSPATLSLSPGERATLSCRASQYVFRRYLAWYQQKPGQAPRLLISGSSNRATGVPARFSGSGSGTDFTLTISSLEPEDFAVYYCLQLYNIPNTFGQGTKVEIKR
8.54 to 9.13

How about MS-R IgG1 7.4.H2 × 7.2.L1 (antibody, V domains shown, full-length human IgG1; VH entry starts at QLVESGG) VH: ELVESGGGLVQPGGSLRLSCAASGFTFSSYAMSWVRQAPGKGLEWVSAINYNGARIYYADSVKGRFTISRDNSKNTLYLQMNSLRAEDTAVYYCARGKGNTHKPYGYVRYFDVWGQGTLVTVSS VL: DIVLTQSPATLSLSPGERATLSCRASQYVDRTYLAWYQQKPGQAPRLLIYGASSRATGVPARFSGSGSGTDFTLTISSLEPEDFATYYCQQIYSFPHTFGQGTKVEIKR ?
9.25 to 9.92

Hello, the source for this data is patent US20100172907A1, in case you need it.
